biological target: Heat shock factor protein 1 (Mus musculus, UniProt P38532); assay: enhancement of HSF1-driven luciferase signal – cell-based, NIH3T3, luminescence, dose retest, confirmation (AID 435004); type: functional;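 further: stress induced by proteasome inhibitor MG132 added 30 min after compound; luciferase reporter driven by HSF1 response element in NIH3T3 cells; actives raise luminescence as potentiators of the MG132 stress response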
Sequence (P38532 whole entry): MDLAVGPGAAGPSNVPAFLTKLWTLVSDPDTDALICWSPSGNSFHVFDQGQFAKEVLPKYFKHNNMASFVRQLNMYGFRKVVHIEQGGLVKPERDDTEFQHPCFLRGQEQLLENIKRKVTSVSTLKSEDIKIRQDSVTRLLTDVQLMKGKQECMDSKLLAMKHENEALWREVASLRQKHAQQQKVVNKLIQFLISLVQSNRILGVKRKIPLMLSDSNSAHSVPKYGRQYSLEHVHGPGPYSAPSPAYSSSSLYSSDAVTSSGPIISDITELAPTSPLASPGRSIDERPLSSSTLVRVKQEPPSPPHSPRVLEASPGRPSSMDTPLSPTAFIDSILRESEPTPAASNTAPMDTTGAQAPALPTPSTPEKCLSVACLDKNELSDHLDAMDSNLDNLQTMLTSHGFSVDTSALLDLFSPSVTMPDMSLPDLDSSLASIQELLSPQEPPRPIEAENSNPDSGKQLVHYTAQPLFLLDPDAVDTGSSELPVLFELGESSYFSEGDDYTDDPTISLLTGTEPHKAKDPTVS
Calls of active or inactive are those of the source.
observable: EC50

COc1ccc(CNC(=O)C(c2ccc(C)o2)N(C(=O)c2csnn2)c2ccc(C(C)C)cc2)cc1 (stereo unspecified)
73.7 µM (active)
Oc1ccc(/C=N/Nc2ncc(Br)cn2)c(O)c1
18.6 µM (active)
CCCCn1cnc2c(oc3nc4c(cc32)CCCC4)c1=O
> 260 µM (inactive)

Prompt: Query (compound): COc1ccc(/C=N/n2cncn2)cc1COc1ccc(NC(C)=O)cc1 ; field requested: EC50
Completion: > 260 µM (inactive)

Prompt: Same question, O=C(Nc1nc(-c2ccccn2)cs1)c1ccc(Cl)s1 this time
Completion: 2.06 µM (inconclusive)

Prompt: Same question, O=C(O)CSc1nnnn1-c1ccc2c(c1)OCCO2 this time
Completion: > 260 µM (inactive)

====

Listed molecules paired with reported IC50
Molecular target: Tyrosine-protein phosphatase non-receptor type 11 (Homo sapiens, UniProt Q06124)
Sequence (Q06124 whole entry): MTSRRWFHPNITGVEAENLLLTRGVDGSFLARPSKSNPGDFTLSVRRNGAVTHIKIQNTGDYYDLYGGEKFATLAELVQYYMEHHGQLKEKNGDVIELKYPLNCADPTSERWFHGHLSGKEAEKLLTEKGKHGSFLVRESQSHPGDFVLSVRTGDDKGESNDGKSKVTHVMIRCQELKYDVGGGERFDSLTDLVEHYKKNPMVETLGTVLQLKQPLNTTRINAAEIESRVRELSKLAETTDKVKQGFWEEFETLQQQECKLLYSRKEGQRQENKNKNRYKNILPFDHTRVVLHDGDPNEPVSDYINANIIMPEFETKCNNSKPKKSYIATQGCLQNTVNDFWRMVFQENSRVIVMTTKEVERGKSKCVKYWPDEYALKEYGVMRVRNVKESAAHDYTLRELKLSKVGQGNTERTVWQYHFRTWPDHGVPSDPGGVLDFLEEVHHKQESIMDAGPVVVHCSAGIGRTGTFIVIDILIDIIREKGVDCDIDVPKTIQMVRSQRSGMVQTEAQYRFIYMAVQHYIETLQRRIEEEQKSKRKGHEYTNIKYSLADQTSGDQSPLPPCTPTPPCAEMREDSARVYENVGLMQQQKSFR
Experiment: PTPN11 enzyme inhibitors – biochemical, selectivity assay for STEP inhibitor project, dose response (AID 602367)
Type: functional
Conditions: read-out: IC50_Mean
The source made the active and inactive calls.

# count of solved cases: 3
NC(=O)C1(N2CCCCC2)CCN(C(=S)Nc2ccc(S(N)(=O)=O)cc2)CC1
2000 nM (active)
O=C(COc1ccc(/C=N/NC(=O)c2ccc(O)cc2)cc1)Nc1cccc([N+](=O)[O-])c1
2410 nM (active)
O=C1NN(c2cccc(Br)c2)C(=O)/C1=C\c1ccc(N2CCOCC2)cc1
4480 nM (active)

Prompt: What is its IC50 for Tyrosine-protein phosphatase non-receptor type 11 (Homo sapiens, UniProt Q06124)? Entry: NS(=O)(=O)c1ccc(NC(=S)N2CCC(Cc3ccccc3)CC2)cc1
Completion: 3130 nM (active)

====

molecular target: Beta-2 adrenergic receptor (Homo sapiens); test: ADRB2 activation measured by internalization – cell-based, FAP fluorogen, flow cytometry, cherry pick 1, dose response (AID 588763); assay type: functional
Sequence (P07550 whole entry): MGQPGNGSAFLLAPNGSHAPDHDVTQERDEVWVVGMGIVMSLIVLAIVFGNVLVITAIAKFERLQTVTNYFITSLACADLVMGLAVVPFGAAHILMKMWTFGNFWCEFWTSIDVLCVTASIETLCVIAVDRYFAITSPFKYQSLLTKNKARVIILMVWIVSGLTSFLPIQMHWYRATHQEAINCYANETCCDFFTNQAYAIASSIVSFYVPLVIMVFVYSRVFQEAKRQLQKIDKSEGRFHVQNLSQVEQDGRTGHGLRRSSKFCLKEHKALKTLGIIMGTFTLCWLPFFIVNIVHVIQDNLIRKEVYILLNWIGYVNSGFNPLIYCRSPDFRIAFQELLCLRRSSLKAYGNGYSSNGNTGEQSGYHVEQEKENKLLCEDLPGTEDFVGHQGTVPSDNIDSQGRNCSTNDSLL
Active and inactive are the calls of the source.
Listed compounds paired with reported EC50

# count of solved cases: 3
COc1ccc(CN2CCC(Oc3ccc(C(=O)N4CCCC4)cc3)CC2)c(F)c1
4660 nM (active)
N#Cc1cc(-c2ccccc2)nnc1Oc1ccccc1Cl
173 nM (active)
CCCCC(=O)Nc1ccc(S(=O)(=O)N2CCCCC2c2cccnc2)cc1 (centres undefined)
79.8 nM (active)

Now let's try a different one.
Prompt: Query (compound): COCCc1ncc(CN2CCC(C(=O)Nc3ccc(-n4cccn4)cc3)CC2)cn1 ; field requested: EC50
Completion: 1290 nM (active)

Cited source: ChEMBL document CHEMBL1201862
